Please provide measured T/C for the entries that follow.
system: P388 leukemia ip, CD2F1 mice, survival T/C; assay: NCI In Vivo Anticancer Drug Screen. Data for tumor model P388 Leukemia (intraperitoneal) in CD2F1 (CDF1) mice; conditions: endpoint: median survival time; dose: 400.0 mg/kg/injection; schedule: Q04DX003 (ip); vehicle: saline with Tween-80; higher = longer survival
Inconclusive results and toxic doses are left out.

Observe how each entry below is paired with its result.
Nc1cc2ccc3ncccc3c2c2cccnc12
97 % of control
CCCCn1c(=S)sc2ccccc21
104 % of control
Cc1ccc(NC(=O)C(c2ccccc2)c2ccccc2)cc1
92 % of control
O=C1CN(C2CC2N2CC(=O)OC(=O)C2)CC(=O)O1 (configuration not stated)
89 % of control
O=C(OCc1ccccc1)N1Cc2cc3ccccc3nc2C1
101 % of control
CCOC(=O)c1cc(NC(C)=O)c(C)n1C
112 % of control

Let's switch to this molecule now.
Task item: Lab note: need T/C for C(/C=C/c1ccccc1)=C1SCCCS1 on P388 leukemia ip, CD2F1 mice, survival T/C, anyone have it?
Reply: 90 % of control

###

Please provide measured T/C for the entries that follow.
system: P388 leukemia ip, CD2F1 mice, survival T/C; assay: NCI In Vivo Anticancer Drug Screen. Data for tumor model P388 Leukemia (intraperitoneal) in CD2F1 (CDF1) mice; conditions: endpoint: median survival time; dose: 400.0 mg/kg/injection; schedule: Q04DX002 (ip); vehicle: Klucel (hydroxypropylcellulose) (HPC); higher = longer survival
Inconclusive results and toxic doses are left out.

NC(=S)n1nc(-c2ccccc2)c(N=Nc2ccccc2[N+](=O)[O-])c1-c1ccccc1
105 % of control

Working through the 3 compounds below one at a time, give T/C for each.
1. CC1(C)CCCC(C)(C)N1CC#CCON1C(=O)c2ccccc2C1=O
2. COc1ccc(-c2cnnn2Cc2ccco2)cc1
3. CC(=O)C1C(c2ccccc2)SC(c2ccccc2)CC1(C)O (configuration not stated)

Reply:
1: 105 % of control; 2: 102 % of control; 3: 87 % of control

Working through the 3 compounds below one at a time, give T/C for each.
1. CNc1c(C(N)=O)nnn1Cc1ccc(OC)cc1
2. CC1=C(O)CC(/C(C)=C/Cl)OC1=O (configuration not stated)
3. CCCNC(=O)CCC(NS(=O)(=O)c1ccccc1)C(=O)O (configuration not stated)

Reply:
1. 103 % of control
2. 102 % of control
3. 96 % of control

###

Please provide measured T/C for the entries that follow.
system: P388 leukemia ip, CD2F1 mice, survival T/C; experiment: NCI In Vivo Anticancer Drug Screen. Data for tumor model P388 Leukemia (intraperitoneal) in CD2F1 (CDF1) mice; details: endpoint: median survival time; dose: 50.0 mg/kg/injection; schedule: Q01DX009 (ip); vehicle: saline; higher = longer survival
Inconclusive results and toxic doses are left out.

Observe how each entry below is paired with its result.
CCSC(=S)N=Nc1c(O)n(C)c2ccccc12
93 % of control
O=S(=O)(O)c1ccc2c(c1)C1C(C3C2C2(Cl)C(Cl)=C(Cl)C3(Cl)C2(Cl)Cl)C2(Cl)C(Cl)=C(Cl)C1(Cl)C2(Cl)Cl (stereo not drawn)
108 % of control

Working through the 2 molecules below one at a time, give T/C for each.
1. Fc1ccc(CSC(=S)Nc2ccc(F)c(F)c2)cc1
2. NC(CO)C(=O)O (stereo not drawn)

Reply:
1. 87 % of control
2. 112 % of control [middle of 4 runs]
